# Method description: self-splicing fitness, log relative to wild type (ln ratio); higher = more splicing; Tetrahymena group I intron in knt gene, E. coli kanamycin selection, DiMSum; sequences stand for … in CUCUCU…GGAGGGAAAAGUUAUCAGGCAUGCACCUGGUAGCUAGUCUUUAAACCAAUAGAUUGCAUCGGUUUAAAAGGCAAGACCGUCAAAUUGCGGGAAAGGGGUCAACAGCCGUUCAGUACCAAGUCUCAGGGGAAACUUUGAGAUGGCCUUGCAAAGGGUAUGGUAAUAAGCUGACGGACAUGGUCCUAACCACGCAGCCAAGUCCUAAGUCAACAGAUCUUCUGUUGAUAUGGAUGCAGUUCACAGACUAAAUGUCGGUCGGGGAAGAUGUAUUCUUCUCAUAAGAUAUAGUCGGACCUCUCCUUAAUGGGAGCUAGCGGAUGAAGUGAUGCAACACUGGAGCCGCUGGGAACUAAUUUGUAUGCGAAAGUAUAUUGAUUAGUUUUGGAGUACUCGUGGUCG;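 also: selection with 25 µg/mL kanamycin versus none on LB agar overnight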
# Test settings: 30 °C
Classification field: enter rule met for self-splicing fitness (ln) values not below -2, rule not met for values below it.

GUCCAGCAAUAUUACGCUAG : rule met
GCUUAGCAAUAUUACGGUUC : rule met
CGCAAGCAAUAUUACGAGUU : rule not met
GAUUAGCAAUAUUACGACAA : rule met

Prompt: // inclusive: self-splicing fitness (ln) at least -2? input: `AUGAAGCAAUAUUACGUGUU`
Completion: rule met

Prompt: // inclusive: self-splicing fitness (ln) at least -2? input: `AACCAGCAAUAUUACGCCGG`
Completion: rule not met

Prompt: // inclusive: self-splicing fitness (ln) at least -2? input: `AUGGAGCAAUAUUACGGGUG`
Completion: rule not met

---

# Method description: self-splicing fitness, log relative to wild type (ln ratio); higher = more splicing; Tetrahymena group I intron in knt gene, E. coli kanamycin selection, DiMSum; sequences stand for … in CUCUCU…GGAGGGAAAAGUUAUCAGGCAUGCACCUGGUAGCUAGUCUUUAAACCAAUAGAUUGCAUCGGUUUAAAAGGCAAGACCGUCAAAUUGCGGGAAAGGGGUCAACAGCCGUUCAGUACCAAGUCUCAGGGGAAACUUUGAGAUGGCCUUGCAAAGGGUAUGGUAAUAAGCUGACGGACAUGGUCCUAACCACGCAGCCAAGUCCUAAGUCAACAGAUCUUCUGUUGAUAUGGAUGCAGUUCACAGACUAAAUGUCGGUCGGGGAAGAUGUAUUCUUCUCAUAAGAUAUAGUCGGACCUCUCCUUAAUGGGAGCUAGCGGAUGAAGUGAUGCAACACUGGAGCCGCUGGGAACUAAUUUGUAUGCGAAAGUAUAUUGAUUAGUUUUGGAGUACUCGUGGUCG
# Test settings: 37 °C
Class boundaries, taken from values of self-splicing fitness (ln), are as follows: one (below -2), two (-2 to below -0.6), three (-0.6 or more)

Look over these answered cases.
CGCCAGCAAUAUUACGGUAU : two
UAUUAGCAAUAUUACGCGCG : three
UCGUAGCAAUAUUACGGUUU : two
AGUCAGCAAUAUUACGAACA : three
GGGAAGCAAUAUUACGUGCA : three
GAAUAGCAAUAUUACGGAGG : one
AACUAGCAAUAUUACGACCU : three
GCCGAGCAAUAUUACGCCUA : two

Prompt: Tag the class for `GUUAAGCAAUAUUACGGCAC`
Completion: three

Prompt: Tag the class for `UAAAAGCAAUAUUACGUCCA`
Completion: two

Prompt: Tag the class for `CUGUAGCAAUAUUACGAUCG`
Completion: three

Prompt: Tag the class for `UCGCAGCAAUAUUACGAAUC`
Completion: one

Prompt: Tag the class for `AGCCAGCAAUAUUACGCCAU`
Completion: two

Prompt: Tag the class for `GUUGAGCAAUAUUACGGCGG`
Completion: one

Prompt: Tag the class for `GCCUAGCAAUAUUACGGGUG`
Completion: three

Prompt: Tag the class for `UAUCAGCAAUAUUACGACGU`
Completion: three

Prompt: Tag the class for `ACUAAGCAAUAUUACGGCGA`
Completion: three

Prompt: Tag the class for `UAUUAGCAAUAUUACGAGAA`
Completion: one

Prompt: Tag the class for `UUACAGCAAUAUUACGCAUG`
Completion: three

Prompt: Tag the class for `AGGCAGCAAUAUUACGUGCU`
Completion: two

Prompt: Tag the class for `ACACAGCAAUAUUACGGCCG`
Completion: three

Prompt: Tag the class for `ACUGAGCAAUAUUACGUUUG`
Completion: one

Prompt: Tag the class for `GAGGAGCAAUAUUACGUAUG`
Completion: one

Prompt: Tag the class for `AACGAGCAAUAUUACGCAAC`
Completion: two

Prompt: Tag the class for `UUGCAGCAAUAUUACGAGUC`
Completion: one

Prompt: Tag the class for `ACAUAGCAAUAUUACGAAUC`
Completion: one

Prompt: Tag the class for `UUGCAGCAAUAUUACGGCGG`
Completion: two

Prompt: Tag the class for `AGGAAGCAAUAUUACGGGCA`
Completion: two

---

Some sequences, each annotated with its measured self-splicing fitness (ln).
# Method description: self-splicing fitness, log relative to wild type (ln ratio); higher = more splicing; Tetrahymena group I intron in knt gene, E. coli kanamycin selection, DiMSum; sequences stand for … in CUCUCU…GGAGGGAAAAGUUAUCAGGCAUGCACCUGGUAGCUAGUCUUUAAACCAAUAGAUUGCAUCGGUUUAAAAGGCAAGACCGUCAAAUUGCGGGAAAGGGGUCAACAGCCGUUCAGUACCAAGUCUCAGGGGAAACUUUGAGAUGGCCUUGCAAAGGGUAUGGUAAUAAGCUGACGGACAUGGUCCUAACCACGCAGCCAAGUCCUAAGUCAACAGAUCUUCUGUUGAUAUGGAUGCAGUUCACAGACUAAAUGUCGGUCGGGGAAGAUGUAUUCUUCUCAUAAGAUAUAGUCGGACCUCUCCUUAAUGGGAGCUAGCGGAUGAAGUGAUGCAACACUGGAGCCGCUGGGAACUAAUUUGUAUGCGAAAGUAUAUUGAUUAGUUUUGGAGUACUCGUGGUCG
# Test settings: 30 °C
Give the value as a plain number.

# count of solved cases: 5
ACGCAGCAAUAUUACGAGGC : -2.95
AGACAGCAAUAUUACGGCCA : -1.28
GUGUAGCAAUAUUACGGAAU : -1.42
GCUAAGCAAUAUUACGGCCA : -0.635
GCCCAGCAAUAUUACGCUCG : -3.45

Now examine the next entry.
Entry `AGGUAGCAAUAUUACGGUAU` , self-splicing fitness (ln) reported as -1.96

---

# Method description: self-splicing fitness, log relative to wild type (ln ratio); higher = more splicing; Tetrahymena group I intron in knt gene, E. coli kanamycin selection, DiMSum; sequences stand for … in CUCUCU…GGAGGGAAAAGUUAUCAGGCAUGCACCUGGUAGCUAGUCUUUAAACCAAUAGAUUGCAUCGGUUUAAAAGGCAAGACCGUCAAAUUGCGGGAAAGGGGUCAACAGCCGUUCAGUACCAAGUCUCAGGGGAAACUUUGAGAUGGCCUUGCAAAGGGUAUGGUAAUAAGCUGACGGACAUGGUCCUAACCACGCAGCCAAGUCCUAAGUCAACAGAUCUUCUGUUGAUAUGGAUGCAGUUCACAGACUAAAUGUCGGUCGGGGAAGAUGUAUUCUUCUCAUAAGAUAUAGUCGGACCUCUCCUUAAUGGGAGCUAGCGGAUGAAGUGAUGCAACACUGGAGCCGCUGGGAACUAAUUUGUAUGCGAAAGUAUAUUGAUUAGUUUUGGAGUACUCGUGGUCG
# Test settings: 30 °C
Outcome measure: self-splicing fitness (ln)
Give the value as a plain number.

UCAUAGCAAUAUUACGAGAG : -2.96
AAUAAGCAAUAUUACGACGU : 0.233
GAGAAGCAAUAUUACGGUAA : -1.64
CGAUAGCAAUAUUACGUUGC : -4.22
UAUAAGCAAUAUUACGCAAG : -1.86
AUGUAGCAAUAUUACGGUGU : -3.04
GGUUAGCAAUAUUACGUAUA : -1.45
UCAAAGCAAUAUUACGAACG : -0.696

Entry `ACCUAGCAAUAUUACGUCUG` , self-splicing fitness (ln) reported as -2.84

Entry `UCGUAGCAAUAUUACGAUAA` , self-splicing fitness (ln) reported as -3.65

---

# Method description: self-splicing fitness, log relative to wild type (ln ratio); higher = more splicing; Tetrahymena group I intron in knt gene, E. coli kanamycin selection, DiMSum; sequences stand for … in CUCUCU…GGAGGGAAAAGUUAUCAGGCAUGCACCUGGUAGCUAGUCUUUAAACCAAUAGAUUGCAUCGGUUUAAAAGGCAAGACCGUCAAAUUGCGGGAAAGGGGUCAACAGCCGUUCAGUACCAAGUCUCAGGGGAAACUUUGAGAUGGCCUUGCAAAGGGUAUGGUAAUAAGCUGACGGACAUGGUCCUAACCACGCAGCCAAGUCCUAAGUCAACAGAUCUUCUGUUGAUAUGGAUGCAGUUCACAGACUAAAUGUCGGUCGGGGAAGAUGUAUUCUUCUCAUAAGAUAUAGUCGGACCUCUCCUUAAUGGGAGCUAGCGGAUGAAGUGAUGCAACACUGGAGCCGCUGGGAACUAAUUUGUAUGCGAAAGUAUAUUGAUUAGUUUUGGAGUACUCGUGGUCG
# Test settings: 37 °C
Classification field: enter y for self-splicing fitness (ln) values not below -1, n for values below it.

AGCAAGCAAUAUUACGGACU : y

Prompt: // inclusive: self-splicing fitness (ln) at least -1? input: `CACUAGCAAUAUUACGAGUA`
Completion: y

Prompt: // inclusive: self-splicing fitness (ln) at least -1? input: `UCGUAGCAAUAUUACGAAGC`
Completion: n

Prompt: // inclusive: self-splicing fitness (ln) at least -1? input: `AGCAAGCAAUAUUACGACCC`
Completion: y

Prompt: // inclusive: self-splicing fitness (ln) at least -1? input: `UCUCAGCAAUAUUACGAGGG`
Completion: n

Prompt: // inclusive: self-splicing fitness (ln) at least -1? input: `AAUAAGCAAUAUUACGUUUA`
Completion: n

Prompt: // inclusive: self-splicing fitness (ln) at least -1? input: `CUAAAGCAAUAUUACGUUGG`
Completion: y

Prompt: // inclusive: self-splicing fitness (ln) at least -1? input: `CCUCAGCAAUAUUACGGAGU`
Completion: n

Prompt: // inclusive: self-splicing fitness (ln) at least -1? input: `UCCCAGCAAUAUUACGGGAG`
Completion: n

Prompt: // inclusive: self-splicing fitness (ln) at least -1? input: `UACAAGCAAUAUUACGAUGG`
Completion: y

Prompt: // inclusive: self-splicing fitness (ln) at least -1? input: `AAUUAGCAAUAUUACGCGAC`
Completion: n

Prompt: // inclusive: self-splicing fitness (ln) at least -1? input: `GUGUAGCAAUAUUACGUUGC`
Completion: n

Prompt: // inclusive: self-splicing fitness (ln) at least -1? input: `GUUAAGCAAUAUUACGUAAA`
Completion: n

Prompt: // inclusive: self-splicing fitness (ln) at least -1? input: `CAAUAGCAAUAUUACGUCUU`
Completion: n

Prompt: // inclusive: self-splicing fitness (ln) at least -1? input: `UUUCAGCAAUAUUACGUAAG`
Completion: y
